Where do these numbers come from? They come from patent US5852190A.

- ASSAYED_TARGET: PDE IV
- ASSAY_EXPLANATION: PDE IV inhibition (partially purified enzyme) compared with rolipram
- Assay type: biochemical
- MEASUREMENT_CONDITIONS: enzyme preparation obtained from guinea-pig trachea; same enzyme preparation for rolipram and product
PARAMETER: IC50 rolipram / IC50 example (PDE IV-inhibitory effect compared with rolipram)

1) COc1cc2c3c(c1)C(c1ccccc1)=N[C@@H](NC(=O)c1nnc4cc(C)nn4c1C)C(=O)N3CC2: 2.2
2) O=C(N[C@@H]1N=C(c2ccccc2)c2cccc3c2N(CC3)C1=O)c1ccccn1: 1.5
3) COc1cc2c3c(c1)C(c1ccccc1)=N[C@@H](NC(=O)c1ccc4ncccc4c1)C(=O)N3CC2: 1.9
4) O=C(N[C@@H]1N=C(c2ccccc2)c2cccc3c2N(CC3)C1=O)c1cccc(F)c1: 1.2

---

- ASSAYED_TARGET: PDE IV
- ASSAY_EXPLANATION: PDE IV inhibition (partially purified enzyme) compared with rolipram
- Format: biochemical
- MEASUREMENT_CONDITIONS: enzyme preparation obtained from guinea-pig trachea; same enzyme preparation for rolipram and product
PARAMETER: IC50 rolipram / IC50 example (PDE IV-inhibitory effect compared with rolipram)

1) COc1cc2c3c(c1)C(c1ccccc1)=N[C@@H](NC(=O)c1cnc4ccccc4c1)C(=O)N3CC2: 1.9
2) COc1cc(C(=O)N[C@@H]2N=C(c3ccccc3)c3cccc4c3N(CC4)C2=O)cc(OC)c1OC: 1.3
3) COc1cc2c3c(c1)C(c1ccccc1)=N[C@@H](NC(=O)c1cccc(Cl)c1)C(=O)N3CC2: 2.7
4) CC(=O)Nc1ccc(C(=O)N[C@@H]2N=C(c3ccccc3)c3cccc4c3N(CC4)C2=O)cc1: 1.9
5) O=C(NC1N=C(c2ccccc2)c2cccc3c2N(CC3)C1=O)c1cn2ccccc2n1 (racemic): 3.7
6) Cc1cc2nnc(C(=O)N[C@@H]3N=C(c4ccccc4)c4cccc5c4N(CC5)C3=O)c(C)n2n1: 1.4
7) O=C(N[C@@H]1N=C(c2ccccc2)c2cccc3c2N(CC3)C1=O)c1ccc2ncccc2c1: 2.0
8) COc1cc2c3c(c1)C(c1ccccc1)=N[C@@H](NC(=O)c1ccc(Cl)cc1)C(=O)N3CC2: 1.6
9) COc1cc2c3c(c1)C(c1ccccc1)=NC(NC(=O)c1cc4ccccc4cn1)C(=O)N3CC2 (centres unmarked): 1.2
10) COc1ccc(Cl)cc1C(=O)N[C@@H]1N=C(c2ccccc2)c2cccc3c2N(CC3)C1=O: 2.5
11) COc1cc2c3c(c1)C(c1ccccc1)=N[C@@H](NC(=O)c1ccncc1)C(=O)N3CC2: 1.6
12) O=C(N[C@@H]1N=C(c2ccccc2)c2cccc3c2N(CC3)C1=O)c1ccc(F)cc1: 1.2
13) O=C(N[C@@H]1N=C(c2ccccc2)c2cccc3c2N(CC3)C1=O)c1cnc2ccccc2c1: 3.3
14) COc1cc2c3c(c1)C(c1ccccc1)=N[C@@H](NC(=O)c1cc4ccccc4cn1)C(=O)N3CC2: 1.2
